- Procedure details: Safety and tolerability: treatment-emergent adverse events by intervention
- Type: in vivo, human
- Recorded conditions: TEAE; intervention arm = label; P-CAB arms co-administered with atorvastatin 40 mg, 7 days
Measurement kind: Pyuria: number of subjects
When you answer, write just the number.

Solved cases (3 shown):
1. CNCc1cc(-c2ccccc2F)n(S(=O)(=O)c2cccnc2)c1 [Vonoprazan, vonoprazan]; 2
2. CC(C)c1c(C(=O)Nc2ccccc2)c(-c2ccccc2)c(-c2ccc(F)cc2)n1CC[C@@H](O)C[C@@H](O)CC(=O)O [Reference 2, atorvastatin]; 1
3. Cc1nc2cc(C(=O)N(C)C)cc(O[C@H]3CCOc4cc(F)cc(F)c43)c2[nH]1 [Tegoprazan, tegoprazan]; 1

Please find the next compound below.
Fill blank: measured Pyuria: number of subjects of the compound CC(C)c1c(C(=O)Nc2ccccc2)c(-c2ccccc2)c(-c2ccc(F)cc2)n1CC[C@@H](O)C[C@@H](O)CC(=O)O [Reference 1, atorvastatin] is ____.
1

These entries and their values trace back to paper PMC8632694.
